Hey, just so you know, these numbers are from patent US7201904B2.

# Test system: HCV-specific CD8+ T cells in PBMC
# Type: cell-based, human
# reportedConditions: subject P10, PBMC stimulated 8 to 9 days with peptides and IL-2
Item-by-item account of tetramer positive cells of CD8+ T cells, stim.
observedProperty: tetramer positive cells of CD8+ T cells, stim. (%)

constructsequence=ILAGYGAGV measuredon="HCV-specific CD8+ T cells in PBMC" censoringsign=< measuredvalue=0.02
constructsequence=KLVALGINAV measuredon="HCV-specific CD8+ T cells in PBMC" censoringsign== measuredvalue=41
constructsequence=CINGVCWTV measuredon="HCV-specific CD8+ T cells in PBMC" censoringsign== measuredvalue=0.40
constructsequence=ALYDVVTKL measuredon="HCV-specific CD8+ T cells in PBMC" censoringsign=< measuredvalue=0.02
